Test system: HCT-116 colon
Test: NCI-60 one-dose screen, 48 h
Conditions: 10 µM unless noted
Compounds without any hit were thinned out: in the full panel of roughly 83,000, 20% have a hit. Calls of active or inactive are those of the source. How the source made its calls: active means growth percent below 10; inactive means the rest.
Mark one answer only. Choices: yes (1) (active), no (0) (inactive)

Completed entries (count: 8):
MOLECULE	CLASS_NAME
Cc1ccc(/C=C2\COc3ccc(O)c(O)c3C2=O)cc1	yes (1)
COc1cc(Cl)cc(-c2nn(C(=O)NS(=O)(=O)c3ccc(Cl)cc3)cc2-c2ccncc2)c1	no (0)
O=c1c(/C=C/c2ccco2)nnc2sc(Nc3ccc(Cl)cc3)nn12	no (0)
C=C(C)[C@@H]1CC[C@]2(C(=O)O)CC[C@]3(C)[C@H](CC[C@@H]4[C@@]5(C)CCC(N)C(C)(C)[C@@H]5CC[C@]43C)[C@@H]12 (some centres not stated)	yes (1)
COc1ccc(C2=C(CN)C(O)NC(=NCC(=O)c3ccc4ccccc4c3)N2)cc1 (configuration not stated)	no (0)
O=C(Oc1ccc(CO[N+](=O)[O-])cc1)c1ccccc1	yes (1)
COc1nc(=O)n(C2C=CC(=O)O2)cc1F (configuration not stated)	no (0)
Cc1ccc(-c2nc3nc(-c4ccc(F)cc4)nc(N4CCCNCC4)c3o2)cc1	yes (1)

For this molecule, state the assay outcome: "N#Cc1c(-c2cccc(F)c2)cc(-c2cccnc2)[nH]c1=O"
no (0)

Can you handle "Cc1ccc(S(=O)(=O)Nc2cc(Sc3ccccc3)c(O)c3ccccc23)cc1" next?
no (0)

----------
Tested on: MDA-MB-231 breast
Experiment: NCI-60 one-dose screen, 48 h
Details: 10 µM unless noted
This is part of a sample that, as a whole, favours compounds with a hit. Of some 83,000 tested, about 20% had one in any assay. Active and inactive are the calls of the source. The calls were made as follows: active = growth percent below 10; inactive = the rest.
Mark one answer only. Choices: T (active), F (inactive)

MOLECULE	CLASS_NAME
CCCCSc1ccc2nc(-c3ccc(OCCCN=C(N)N)cc3)cn2c1	F
CC(C)(C)c1cc(C(C)(C)c2ccccc2)cc(Cc2cc(C(C)(C)c3ccccc3)cc(C(C)(C)C)c2O)c1O	F
CN1CCCc2cc(/C=C3\SC(=S)N(C(Cc4ccc(O)cc4)C(=O)O)C3=O)ccc21 (stereo not drawn)	F
COc1ccc(/C=C/C(=O)c2cc3c(N)c(C(=O)Nc4ccccc4Cl)sc3nc2C)cc1	F
C=CCN1C=CC(=O)[C@H](O[Si](C)(C)C(C)(C)C)[C@@H]1/C=C/c1ccccc1	T

For this molecule, state the assay outcome: "O=C(Nc1ccc(F)cc1)c1cc2cc(Nc3nc(-c4ccccc4)nc4ccccc34)ccc2oc1=O"
F

Can you handle "COc1ccc(/C=C2/C(=O)N=C3N2NC(c2ccccc2)=CN3c2ccccc2)cc1" next?
F

Can you handle "COc1cc(N=Nc2ccc(O)c3ncccc23)c2ncccc2c1" next?
F

----------
Tested on: UACC-62 melanoma
Test: NCI-60 one-dose screen, 48 h (100 = growth as untreated, 0 = no growth, -100 = all killed)
Settings: 10 µM unless noted
The panel holds about 83,000 compounds, 20% with a hit somewhere; the sample as a whole holds those more often.
In this section, each of the molecules is paired with its reported growth.
# unit: % | format: bare number

Sample answers from the record:
SMILES_REPRESENTATION	growth / %
N=C(N)c1ccc(-c2ccc(-c3ccc(F)cc3)s2)nc1	95.9
c1ccc(-c2cc(-c3cc(-c4ccccc4)on3)no2)cc1	89.7

Requested read-out: growth. Entry: "CC1(C)C(N)=Nc2cc(OCCCN3Cc4ccc(OCCc5cn(CC(=O)N6CCC(CCN7CCCC7)CC6)nn5)cc4C3)c(OCC3CC3)cc21"
98.6

Can you handle "Cc1ccc2nc3ccccc3c(NCc3ccc(Cl)cc3)c2c1" next?
74
